Observed Ki, system human collagenase-3 (Coll3) (Homo sapiens).
Answer format reminder: number followed by unit.

compound	Ki
CC(C)(O)C(CO)NC(=O)[C@@H](CC(=O)O)n1ccc(-c2ccc(-c3ccccc3)cc2)c1 (stereo in doubt) [Example 1(i)]	89.6 nM

Prompt: Using the record for CNC(=O)[C@@H](NC(=O)[C@@H](CC(=O)O)n1ccc(-c2ccc(-c3ccc(C#N)cc3)cc2)c1)C(C)(C)C [Example 5(c)] , report its Ki.
Response: 0.049 nM

Prompt: Same read-out for CON(C)C(=O)[C@H](CC(C)C)NC(=O)[C@@H](CC(=O)O)n1ccc(-c2ccc(-c3ccccc3)cc2)c1 [Example 1(l)] ?
Response: 227 nM

Prompt: Same read-out for CC(C)C[C@H](NC(=O)[C@@H](CC(=O)O)n1ccc(-c2ccc(-c3ccccc3)cc2)c1)C(C)O (mixture of isomers) [Example 3] ?
Response: 180 nM

Prompt: Same read-out for O=C(O)C[C@H](C(=O)N[C@H](CO)Cc1ccccc1)c1ccn(-c2ccc(-c3ccccc3)cc2)c1 [Example 13] ?
Response: 21 nM

Prompt: Same read-out for CNC(=O)[C@@H](NC(=O)[C@@H](CC(=O)O)n1ccc(-c2ccc(-c3ccc(C(N)=O)cc3)cc2)c1)C(C)(C)C [Example 5(e)] ?
Response: 0.076 nM
